METHOD DESCRIPTION: Solubility of pomalidomide in various solvents at ambient temperature (visual inspection, solvent aliquot addition)
Format: physicochemical
SETUP CONDITIONS: organic solvent or mixture, thermodynamic from solid, Acetonitrile, read-out: Solubility
MEASURED PROPERTY: solubility

Exercise: Could you share which solubility value was measured for Nc1cccc2c1C(=O)N(C1CCC(=O)NC1=O)C2=O (stereo not shown) [Pomalidomide] ?
Key: < 1000 µg/mL

###

METHOD DESCRIPTION: Solubility of pomalidomide in various solvents at ambient temperature (visual inspection, solvent aliquot addition)
Format: physicochemical
SETUP CONDITIONS: organic solvent or mixture, thermodynamic from solid, DMF, read-out: Solubility
MEASURED PROPERTY: solubility

Exercise: Could you share which solubility value was measured for Nc1cccc2c1C(=O)N(C1CCC(=O)NC1=O)C2=O (stereo not shown) [Pomalidomide] ?
Key: > 5000 µg/mL

###

METHOD DESCRIPTION: Solubility of pomalidomide in various solvents at ambient temperature (visual inspection, solvent aliquot addition)
Assay type: physicochemical
SETUP CONDITIONS: organic solvent or mixture, thermodynamic from solid, acetone:water (95:5), read-out: Solubility
MEASURED PROPERTY: solubility

Exercise: Could you share which solubility value was measured for Nc1cccc2c1C(=O)N(C1CCC(=O)NC1=O)C2=O (stereo not shown) [Pomalidomide] ?
Key: < 1000 µg/mL

###

METHOD DESCRIPTION: Solubility of pomalidomide in various solvents at ambient temperature (visual inspection, solvent aliquot addition)
Assay type: physicochemical
SETUP CONDITIONS: organic solvent or mixture, thermodynamic from solid, Dichloromethane, read-out: Solubility
MEASURED PROPERTY: solubility

Exercise: Could you share which solubility value was measured for Nc1cccc2c1C(=O)N(C1CCC(=O)NC1=O)C2=O (stereo not shown) [Pomalidomide] ?
Key: < 1000 µg/mL

###

METHOD DESCRIPTION: Solubility of pomalidomide in various solvents at ambient temperature (visual inspection, solvent aliquot addition)
Format: physicochemical
SETUP CONDITIONS: organic solvent or mixture, thermodynamic from solid, DMF:methanol (1:2), read-out: Solubility
MEASURED PROPERTY: solubility (µg/mL)
Answer format: numeric, µg/mL implied, no suffix.

Exercise: Could you share which solubility value was measured for Nc1cccc2c1C(=O)N(C1CCC(=O)NC1=O)C2=O (stereo not shown) [Pomalidomide] ?
Key: 2400

###

METHOD DESCRIPTION: Solubility of pomalidomide in various solvents at ambient temperature (visual inspection, solvent aliquot addition)
Assay type: physicochemical
SETUP CONDITIONS: organic solvent or mixture, thermodynamic from solid, Methanol, read-out: Solubility
MEASURED PROPERTY: solubility

Exercise: Could you share which solubility value was measured for Nc1cccc2c1C(=O)N(C1CCC(=O)NC1=O)C2=O (stereo not shown) [Pomalidomide] ?
Key: < 1000 µg/mL

###

METHOD DESCRIPTION: Solubility of pomalidomide in various solvents at ambient temperature (visual inspection, solvent aliquot addition)
Type: physicochemical
SETUP CONDITIONS: organic solvent or mixture, thermodynamic from solid, 2-methyltetrahydrofuran, read-out: Solubility
MEASURED PROPERTY: solubility

Exercise: Could you share which solubility value was measured for Nc1cccc2c1C(=O)N(C1CCC(=O)NC1=O)C2=O (stereo not shown) [Pomalidomide] ?
Key: < 1000 µg/mL
